Hey, just so you know, these numbers are from patent EP0167459B1.

- target-or-test-system: RECEPTEURS α2
- measurement-protocol: Affinity for the α2 receptor in vitro
- condition-set: read-out: AFFINITE RECEPTEURS α2 IN VITRO IC […]; read-out: […] […] α2 IN VITRO IC 50 M
quantity-name: IC50 (nM)
I only need the number, in nM, no unit after it.

// worked examples, IC50 included
Clc1cccc(Cl)c1N=C1NCCN1 ... 1
Cc1ccc(N(CC2=NCCN2)c2cccc(O)c2)cc1 [PHENTOLAMINE, reference compound] ... 22
NC1=NC(Cc2ccccc2Cl)CO1 (racemic) [ex. 11] ... 2.7

Report IC50 for NC1=NC(COc2ccccc2Cl)CO1 (stereo not shown) tested on RECEPTEURS α2.
33

Report IC50 for c1ccc2c(c1)OCC(C1=NCCN1)O2 (stereo not shown) [IDAZOXAN, reference compound] tested on RECEPTEURS α2.
29

---

- target-or-test-system: RECEPTEURS α2
- measurement-protocol: Affinity for the α2 receptor in vitro
- condition-set: read-out: AFFINITE RECEPTEURS α2 IN VITRO IC […]; read-out: […] […] α2 IN VITRO IC 50 M
quantity-name: IC50 (nM)
I only need the number, in nM, no unit after it.

// worked examples, IC50 included
NC1=NC(Cc2ccccc2)CO1 (single isomer, unassigned) ... 4
NC1=NC(Cc2ccc(Cl)cc2)CO1 (racemic) ... 44

Note: attention shifts to another entry.
Give the measured IC50 of NC1=NC(Cc2ccccc2Cl)CO1 (single isomer, unassigned) [ex. 23] .
3.3

---

- target-or-test-system: 5-HT (Homo sapiens)
- Sequence (P31645 whole entry): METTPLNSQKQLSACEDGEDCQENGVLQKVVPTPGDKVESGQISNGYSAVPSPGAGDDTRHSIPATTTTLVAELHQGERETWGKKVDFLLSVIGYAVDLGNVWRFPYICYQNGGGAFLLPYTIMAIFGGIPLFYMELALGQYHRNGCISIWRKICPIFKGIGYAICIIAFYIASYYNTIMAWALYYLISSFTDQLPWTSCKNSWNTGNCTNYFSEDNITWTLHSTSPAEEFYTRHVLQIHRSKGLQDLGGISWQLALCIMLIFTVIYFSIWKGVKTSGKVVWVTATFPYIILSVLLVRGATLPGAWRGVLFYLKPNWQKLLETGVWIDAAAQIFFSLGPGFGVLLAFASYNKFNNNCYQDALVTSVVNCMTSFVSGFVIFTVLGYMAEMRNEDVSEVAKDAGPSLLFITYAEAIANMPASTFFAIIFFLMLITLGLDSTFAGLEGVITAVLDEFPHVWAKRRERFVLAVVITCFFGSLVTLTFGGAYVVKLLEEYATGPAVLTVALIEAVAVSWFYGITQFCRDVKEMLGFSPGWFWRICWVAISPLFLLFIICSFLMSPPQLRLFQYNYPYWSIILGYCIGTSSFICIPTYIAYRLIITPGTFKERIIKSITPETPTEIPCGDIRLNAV
- measurement-protocol: Inhibition of neurotransmitter uptake in vitro, 5-HT
- condition-set: 5-HT = (so in the source); read-out: UPTAKE NEUROTRANSMETTEUR IN VITRO IC 50 M 5-HT
IC50 overview

// worked examples, IC50 included
NC1=NC(Cc2ccccc2Cl)CO1 (racemic) ... > 10 µM
NC1=NC(COCc2ccccc2)CO1 (stereo not shown) ... > 10 µM
NC1=NC(COc2ccccc2Cl)CO1 (stereo not shown) ... 2.8 µM
NC1=NC(Cc2ccc(Cl)cc2)CO1 (racemic) ... 4 µM
NC1=NC(Cc2ccccc2)CO1 (single isomer, unassigned) ... > 10 µM

Give the measured IC50 of NC1=NC(COc2ccccc2)CO1 (racemic) .
> 10 µM

Give the measured IC50 of COc1ccc(OCC2COC(N)=N2)cc1 (stereo not shown) .
> 10 µM

---

- target-or-test-system: UniProtKB Q01959
- Sequence (Q01959 whole entry): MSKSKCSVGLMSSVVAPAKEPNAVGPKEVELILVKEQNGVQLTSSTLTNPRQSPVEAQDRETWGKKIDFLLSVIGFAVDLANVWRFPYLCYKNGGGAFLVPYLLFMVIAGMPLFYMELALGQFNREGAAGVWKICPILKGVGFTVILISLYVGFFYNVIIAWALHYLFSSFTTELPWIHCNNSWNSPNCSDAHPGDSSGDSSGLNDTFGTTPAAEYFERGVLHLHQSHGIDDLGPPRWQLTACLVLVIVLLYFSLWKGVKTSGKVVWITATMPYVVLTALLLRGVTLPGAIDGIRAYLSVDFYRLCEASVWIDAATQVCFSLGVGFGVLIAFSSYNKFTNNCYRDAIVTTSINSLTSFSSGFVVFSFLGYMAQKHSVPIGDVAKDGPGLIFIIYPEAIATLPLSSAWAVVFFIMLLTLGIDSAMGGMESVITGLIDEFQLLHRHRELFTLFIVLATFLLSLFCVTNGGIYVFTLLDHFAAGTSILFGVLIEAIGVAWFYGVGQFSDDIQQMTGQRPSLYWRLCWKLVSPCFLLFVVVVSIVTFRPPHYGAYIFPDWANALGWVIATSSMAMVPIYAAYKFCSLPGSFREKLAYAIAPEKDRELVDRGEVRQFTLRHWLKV
- measurement-protocol: Inhibition of neurotransmitter uptake in vitro, dopamine
- condition-set: read-out: UPTAKE NEUROTRANSMETTEUR IN VITRO IC 50 M DA
quantity-name: IC50 (µM)
I only need the number, in µM, no unit after it.

// worked examples, IC50 included
NC1=NC(COc2ccccc2Cl)CO1 (centres unmarked) [ex. 5] ... 7.2
NC1=NC(Cc2ccc(Cl)cc2)CO1 (racemic) [ex. 10] ... 2.3

Note: attention shifts to another entry.
Give the measured IC50 of NC1=NC(Cc2ccccc2)CO1 (single isomer, unassigned) [ex. 12] .
4

---

- target-or-test-system: NAd (Homo sapiens)
- Sequence (P23975 whole entry): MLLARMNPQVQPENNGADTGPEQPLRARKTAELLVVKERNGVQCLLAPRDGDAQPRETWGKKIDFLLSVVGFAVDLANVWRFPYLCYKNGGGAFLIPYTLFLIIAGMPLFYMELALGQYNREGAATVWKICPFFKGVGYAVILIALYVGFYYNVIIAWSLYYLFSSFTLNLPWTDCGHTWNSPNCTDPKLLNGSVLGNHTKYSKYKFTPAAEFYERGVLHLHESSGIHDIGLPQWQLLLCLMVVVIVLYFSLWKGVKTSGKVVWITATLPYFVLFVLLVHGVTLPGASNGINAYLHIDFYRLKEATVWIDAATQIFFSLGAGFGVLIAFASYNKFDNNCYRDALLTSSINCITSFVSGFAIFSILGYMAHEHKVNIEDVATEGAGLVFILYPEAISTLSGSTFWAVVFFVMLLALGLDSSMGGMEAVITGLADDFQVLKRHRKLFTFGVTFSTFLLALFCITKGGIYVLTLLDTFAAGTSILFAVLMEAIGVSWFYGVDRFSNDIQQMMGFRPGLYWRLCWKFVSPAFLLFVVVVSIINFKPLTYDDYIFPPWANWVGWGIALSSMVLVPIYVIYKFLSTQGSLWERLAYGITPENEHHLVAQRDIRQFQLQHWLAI
- measurement-protocol: Inhibition of neurotransmitter uptake in vitro, noradrenaline
- condition-set: NAd = Noradrénaline; read-out: UPTAKE NEUROTRANSMETTEUR IN VITRO IC 50 M NAd
quantity-name: IC50

// worked examples, IC50 included
NC1=NC(Cc2ccccc2Cl)CO1 (racemic) ... 2500 nM
NC1=NC(Cc2ccccc2)CO1 (single isomer, unassigned) ... 400 nM
NC1=NC(Cc2ccc(Cl)cc2)CO1 (racemic) ... 4000 nM
NC1=NC(COc2ccccc2Cl)CO1 (centres unmarked) ... > 10000 nM

Give the measured IC50 of NC1=NC(CCc2ccccc2)CO1 (racemic) .
230 nM
